# System: HCT-116
# assay-remarks: Inhibition of cell proliferation of human HCT116 cells incubated for 15 hrs by MTT assay
# Type: functional, cell-based
# particulars: HCT-116, 15 h
pIC50 for assorted compounds
Quick note: pIC50 means taking -log10 of the concentration in moles per liter.

Looking up COc1ccc2c(c1)CC[n+]1cc3c(OC)cccc3cc1-2.[Cl-] , I found its pIC50 recorded as 4.57

--- query ---
Looking up COc1ccc2cc3[n+](cc2c1OC)CCc1cc2c(cc1-3)OCO2.[Cl-] [BERBERINE CHLORIDE] , I found its pIC50 recorded as 4.08

* * *

# assayed-target: Retinoic acid receptor RXR-alpha (Homo sapiens, UniProt P19793)
# Sequence (P19793 whole entry, the tested form may be a part): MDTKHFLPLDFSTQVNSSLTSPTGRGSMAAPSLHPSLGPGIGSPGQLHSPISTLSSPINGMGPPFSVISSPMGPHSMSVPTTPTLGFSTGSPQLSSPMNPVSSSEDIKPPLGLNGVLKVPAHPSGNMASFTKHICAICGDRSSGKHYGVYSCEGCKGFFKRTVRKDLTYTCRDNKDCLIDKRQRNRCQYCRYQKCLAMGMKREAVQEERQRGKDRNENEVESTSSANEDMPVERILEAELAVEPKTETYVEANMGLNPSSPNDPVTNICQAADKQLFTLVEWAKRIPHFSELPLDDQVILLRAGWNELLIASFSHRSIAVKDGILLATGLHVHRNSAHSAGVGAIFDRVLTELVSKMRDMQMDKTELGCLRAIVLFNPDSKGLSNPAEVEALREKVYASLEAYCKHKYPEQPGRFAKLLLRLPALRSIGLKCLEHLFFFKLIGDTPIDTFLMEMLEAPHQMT
# assay-remarks: Binding affinity to His-tagged RXRalpha LBD (unknown origin) expressed in Escherichia coli strain BL21 (DE3) by fluorescence quenching analysis
pKd for assorted compounds
Quick note: pKd means taking -log10 of the concentration in moles per liter.

Looking up COc1ccc2c(c1)CC[n+]1cc3c(OC)cccc3cc1-2.[Cl-] , I found its pKd recorded as 4.72

--- query ---
Looking up COc1ccc2cc3[n+](cc2c1OC)CCc1cc2c(cc1-3)OCO2.[Cl-] [BERBERINE CHLORIDE] , I found its pKd recorded as 4.61

* * *

# assay-remarks: Cmax in Sprague-Dawley rat at 100 mg/kg, ig measured after 0.083 to 36 hrs by LC-MS/MS analysis
# Format: ADME, organism-based
# Set-up: dose 100 mg/kg, route intragastric
# particulars: Sprague-Dawley, in vivo, po, read-out: Cmax
assay-endpoint: Cmax (ng/mL)
// units = ng/mL; emit number, no label

Looking up COc1ccc2c(c1)CC[n+]1cc3c(OC)cccc3cc1-2.[Cl-] , I found its Cmax recorded as 486

* * *

Tmax for assorted compounds
# assay-remarks: Tmax in Sprague-Dawley rat at 100 mg/kg, ig measured after 0.083 to 36 hrs by LC-MS/MS analysis
# Format: ADME, organism-based
# particulars: in vivo, po
// units = h; emit number, no label

Looking up COc1ccc2cc3[n+](cc2c1OC)CCc1cc2c(cc1-3)OCO2.[Cl-] [BERBERINE CHLORIDE] , I found its Tmax recorded as 2

--- query ---
Looking up COc1ccc2c(c1)CC[n+]1cc3c(OC)cccc3cc1-2.[Cl-] , I found its Tmax recorded as 2

* * *

pIC50 for assorted molecules
# Test system: KM12C
# assay-remarks: Inhibition of cell proliferation of human KM12C cells incubated for 15 hrs by MTT assay
# Assay type: functional, cell-based
Quick note: pIC50 means taking -log10 of the concentration in moles per liter.

Check out these entries, answers already filled in.
Looking up COc1ccc2cc3[n+](cc2c1OC)CCc1cc2c(cc1-3)OCO2.[Cl-] [BERBERINE CHLORIDE] , I found its pIC50 recorded as 4.12

Looking up c1ccc2c[n+]3c(cc2c1)-c1cc2c(cc1CC3)OCO2 , I found its pIC50 recorded as 4.10

Looking up COc1cccc2c[n+]3c(cc12)-c1cc2c(cc1CC3)OCO2 , I found its pIC50 recorded as 3.93

--- query ---
Looking up COc1cc2c(cc1OC)-c1cc3c(OC)cccc3c[n+]1CC2 , I found its pIC50 recorded as 3.57

* * *

# assay-remarks: MRT (infinity) in Sprague-Dawley rat at 100 mg/kg, ig measured after 0.083 to 36 hrs by LC-MS/MS analysis
# Assay type: ADME, organism-based
# particulars: in vivo, po
MRT inf for assorted compounds
// units = h; emit number, no label

Looking up COc1ccc2c(c1)CC[n+]1cc3c(OC)cccc3cc1-2.[Cl-] , I found its MRT inf recorded as 15.7

--- query ---
Looking up COc1ccc2cc3[n+](cc2c1OC)CCc1cc2c(cc1-3)OCO2.[Cl-] [BERBERINE CHLORIDE] , I found its MRT inf recorded as 31.5

* * *

pIC50 for assorted compounds
# Tested on: KM12C
# assay-remarks: Inhibition of cell proliferation of human KM12C cells incubated for 15 hrs by MTT assay
# Type: functional, cell-based
Quick note: pIC50 means taking -log10 of the concentration in moles per liter.

Given the compound c1c2c(cc3c1OCO3)-c1cc3cc4c(cc3c[n+]1CC2)OCO4 and test system KM12C, the measured pIC50 is 4.24

Given the compound COc1ccc2c(c1)CC[n+]1cc3cc4c(cc3cc1-2)OCO4 and test system KM12C, the measured pIC50 is 4.33

Given the compound COc1ccc2c(c1)CC[n+]1cc3c(OC)c(OC)ccc3cc1-2 and test system KM12C, the measured pIC50 is 4.42

Given the compound COc1ccc2c(c1)CC[n+]1cc3cc(OC)c(OC)cc3cc1-2 and test system KM12C, the measured pIC50 is 4.08

Given the compound COc1cc2c(cc1OC)-c1cc3ccc(OC)c(OC)c3c[n+]1CC2 [PALMATINE CHLORIDE] and test system KM12C, the measured pIC50 is 3.41

More entries:
Given the compound COc1ccc2c(c1)CC[n+]1cc3ccccc3cc1-2 and test system KM12C, the measured pIC50 is 3.89

Given the compound COc1ccc2c(c1)CC[n+]1cc3c(OC)cccc3cc1-2.[Cl-] and test system KM12C, the measured pIC50 is 4.51

Given the compound COc1cc2cc3[n+](cc2cc1OC)CCc1cc2c(cc1-3)OCO2 [PSEUDOBERBERINE] and test system KM12C, the measured pIC50 is 3.33

Given the compound COc1cc2c(cc1OC)-c1cc3cccc(OC)c3c[n+]1CC2 and test system KM12C, the measured pIC50 is 3.78

Given the compound COc1ccc2cc3[n+](cc2c1)CCc1cc2c(cc1-3)OCO2 and test system KM12C, the measured pIC50 is 4.28

* * *

# assay-remarks: Half life in Sprague-Dawley rat at 100 mg/kg, ig measured after 0.083 to 36 hrs by LC-MS/MS analysis
# Format: ADME, organism-based
# particulars: in vivo, po
half-life for assorted compounds
// units = h; emit number, no label

Looking up COc1ccc2c(c1)CC[n+]1cc3c(OC)cccc3cc1-2.[Cl-] , I found its half-life recorded as 11.6

--- query ---
Looking up COc1ccc2cc3[n+](cc2c1OC)CCc1cc2c(cc1-3)OCO2.[Cl-] [BERBERINE CHLORIDE] , I found its half-life recorded as 29
